Measured MIC90 (Enterococcus faecium)
QUANTITY_MEASURED: MIC90 (µg/mL)

COMPOUND: CCOc1c(Br)cc(OC)cc1CNCCCNc1cc(O)c2ccccc2n1
QUANTITY_MEASURED: MIC90
OP: =
EXPERIMENTAL_VALUE: 0.03
//
COMPOUND: CCOc1c(Br)cc(SC)cc1CNCCCNc1cc(O)c2ccccc2n1
QUANTITY_MEASURED: MIC90
OP: =
EXPERIMENTAL_VALUE: 0.5
//
COMPOUND: Oc1cc(NCCCNC2CCNc3c(Br)cc(Br)cc32)nc2ccccc12 (stereo unspecified)
QUANTITY_MEASURED: MIC90
OP: <
EXPERIMENTAL_VALUE: 0.016
//
COMPOUND: CCOc1c(Cl)cc(Cl)cc1CNCCCNc1cc(O)c2ccccc2n1
QUANTITY_MEASURED: MIC90
OP: <
EXPERIMENTAL_VALUE: 0.016
//
COMPOUND: CCc1cc(I)c2c(c1)C(NCCCNc1cc(=O)c3ccccc3[nH]1)CCN2 (stereo unspecified)
QUANTITY_MEASURED: MIC90
OP: =
EXPERIMENTAL_VALUE: 0.06
//
COMPOUND: Oc1cc(NCCCNC2CCNc3c(Br)cc(Cl)cc32)nc2ccccc12 (stereo unspecified)
QUANTITY_MEASURED: MIC90
OP: <
EXPERIMENTAL_VALUE: 0.016
